# Tested on: LC-1F;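 further: growth inhibition of human LC-1F cells, read out with a cell viability assay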
# ASSAY COMMENT: cells
# Type: functional, cell-based, Homo sapiens
# TEST CONTEXT: lc-1f
# Description: SANGER: Inhibition of human LC-1F cell growth in a cell viability assay.
Where a SMILES comes first, the peptide text is derived from it. The star is where a group is joined. Cbz = O=C(OCc1ccccc1)*
PROPERTY LABEL: IC50

Qu. Fill in reported IC50 for this entry: CC(C)C[C@@H](C=O)NC(=O)[C@H](CC(C)C)NC(=O)[C@H](CC(C)C)NC(=O)OCc1ccccc1 [MG-132] (Cbz-Leu-Leu-Leu-aldehyde)
Ans. > 1000 nM

---

# Tested on: NEC8
# ASSAY COMMENT: cells
# Format: functional, cell-based, Homo sapiens
# TEST CONTEXT: Homo sapiens, NEC8
# Description: SANGER: Inhibition of human NEC8 cell growth in a cell viability assay.
pIC50: −log10 of the molar value.
PROPERTY LABEL: pIC50

[[record]]
molecular_string = "CN(C)CCOc1ccc(-c2nc(-c3ccncc3)c(-c3ccc4c(c3)CC/C4=N\\O)[nH]2)cc1"
measured_target = "NEC8"
property_label = "pIC50"
result = "< 5.30"

[[record]]
molecular_string = "CC1=C(/C=C/C(C)=C/C=C/C(C)=C/C(=O)O)C(C)(C)CCC1"
measured_target = "NEC8"
property_label = "pIC50"
result = "< 5.00"


Qu. Please respond with reported pIC50 (system NEC8) for `O=S(=O)(O)c1ccc2cc(/N=N/c3cc(S(=O)(=O)O)c4cccnc4c3O)ccc2c1` .
Ans. < 4.80

Qu. Please respond with reported pIC50 (system NEC8) for `CC(C)C[C@H](NC(=O)[C@H](Cc1ccccc1)NC(=O)c1cnccn1)B(O)O` .
Ans. 8.47

Qu. Please respond with reported pIC50 (system NEC8) for `Cc1ccc(C(=O)Nc2ccc(CN3CCN(C)CC3)c(C(F)(F)F)c2)cc1C#Cc1cnc2cccnn12` .
Ans. < 6.29

Qu. Please respond with reported pIC50 (system NEC8) for `CS(=O)(=O)N1CCN(Cc2cc3nc(-c4cccc5[nH]ncc45)nc(N4CCOCC4)c3s2)CC1` .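 Further: growth inhibition of human NEC8 cells, read out by a cell viability assay.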
Ans. 6.18

---

# System: UACC-893
# ASSAY COMMENT: cells
# Format: functional, cell-based
# TEST CONTEXT: Homo sapiens
# Description: SANGER: Inhibition of human UACC-893 cell growth in a cell viability assay.
PROPERTY LABEL: IC50

Qu. Fill in reported IC50 for this entry: `COc1ccc(-c2cc3nccn3c(Nc3ncccc3C(N)=O)n2)cc1OC`
Ans. > 8 µM

---

# Tested on: EVSA-T
# ASSAY COMMENT: cells
# Format: functional, cell-based, Homo sapiens
# TEST CONTEXT: Homo sapiens, EVSA-T
# Description: SANGER: Inhibition of human EVSA-T cell growth in a cell viability assay.
Reported IC50 is given for each of the following molecules.

# example entries with known answers
[[record]]
molecular_string = "C/C(=C\\c1csc(C)n1)[C@@H]1C[C@@H]2O[C@]2(C)CCC[C@H](C)[C@H](O)[C@@H](C)C(=O)C(C)(C)[C@@H](O)CC(=O)O1"
measured_target = "EVSA-T"
result = "30.7 nM"

[[record]]
molecular_string = "COC(=O)[C@H](CCSC)NC(=O)c1ccc(NC[C@@H](N)CS)cc1-c1ccccc1"
measured_target = "EVSA-T"
result = "> 1020 nM"

[[record]]
molecular_string = "COc1ccc(N(C(=O)Oc2c(C)cccc2C)c2ccnc(Nc3ccc(N4CCN(C)CC4)cc3)n2)c(OC)c1"
measured_target = "EVSA-T"
result = "> 5120 nM"


Attention now turns to another entry.
Qu. Please respond with reported IC50 (system EVSA-T) for `COc1cc(N2CCC(N3CCN(C)CC3)CC2)ccc1Nc1ncc(Cl)c(Nc2ccccc2S(=O)(=O)C(C)C)n1` .
Ans. > 2000 nM
